Value source: patent US20230398130A1

For each of the compounds below, state its Dose.FC.LYZ.NS (log 2 fold change).
System: ISC-enriched organoids
Assay: Primary screen, 384-well 2.5-D organoid differentiation (ENR+CD, 6 days): basal lysozyme secretion (LYZ.NS)
Type: cell-based, murine
Details: Dose 0.08 uM; primary screen, vs plate median
Reply briefly: the number, and no unit.

Enquiry: GET /values?readout=Dose.FC.LYZ.NS (log 2 fold change)&system=ISC-enriched organoids&item= O=[N+]([O-])c1ccc2c(c1)S(=O)(=O)C=C2 [Stattic]
Return: 0.130

Enquiry: GET /values?readout=Dose.FC.LYZ.NS (log 2 fold change)&system=ISC-enriched organoids&item= Cc1cn([C@H]2C=C[C@@H](CO)O2)c(=O)[nH]c1=O [Stavudine (d4T)]
Return: 0.071

Enquiry: GET /values?readout=Dose.FC.LYZ.NS (log 2 fold change)&system=ISC-enriched organoids&item= CCOC(=O)c1ccc(N2NC(=O)/C(=C/c3ccc([N+](=O)[O-])o3)C2=O)cc1 [PYR-41]
Return: 0.150

Enquiry: GET /values?readout=Dose.FC.LYZ.NS (log 2 fold change)&system=ISC-enriched organoids&item= C[S+]([O-])c1ccc(-c2nc(-c3ccc(F)cc3)c(-c3ccncc3)[nH]2)cc1 (stereo not drawn) [SB203580]
Return: 0.092

Enquiry: GET /values?readout=Dose.FC.LYZ.NS (log 2 fold change)&system=ISC-enriched organoids&item= CNC(=O)c1ccc2cc([C@@]3(O)CCn4cncc43)ccc2c1 [TAK-700 (Orteronel)]
Return: 0.176

Enquiry: GET /values?readout=Dose.FC.LYZ.NS (log 2 fold change)&system=ISC-enriched organoids&item= COc1cc(Br)c(Nc2nc(-c3c(C)nc4ncccn34)cs2)c(Br)c1 [PTC-209]
Return: 0.034

Enquiry: GET /values?readout=Dose.FC.LYZ.NS (log 2 fold change)&system=ISC-enriched organoids&item= CC(C)(C)c1cnc(CSc2cnc(NC(=O)C3CCNCC3)s2)o1 [SNS-032 (BMS-387032)]
Return: 0.049

Enquiry: GET /values?readout=Dose.FC.LYZ.NS (log 2 fold change)&system=ISC-enriched organoids&item= CCn1c(N)c(C(=O)NC)c(=O)c2ccc(C#C[C@@](C)(O)COC)nc21 [SAR131675]
Return: 0.055

Enquiry: GET /values?readout=Dose.FC.LYZ.NS (log 2 fold change)&system=ISC-enriched organoids&item= Cc1nn(-c2ccccc2)c(C)c1/C=N/N1CCN(Cc2ccccc2)CC1 [SANT-1]
Return: 0.056
